Assayed Target: T1, human IFNAR2 ECD (human, UniProt P48551 27-243)
T1 construct: extracellular domain; Immobilized for SPR under the same conditions as for the IL-2 specific VHHs
T1 sequence (looked up): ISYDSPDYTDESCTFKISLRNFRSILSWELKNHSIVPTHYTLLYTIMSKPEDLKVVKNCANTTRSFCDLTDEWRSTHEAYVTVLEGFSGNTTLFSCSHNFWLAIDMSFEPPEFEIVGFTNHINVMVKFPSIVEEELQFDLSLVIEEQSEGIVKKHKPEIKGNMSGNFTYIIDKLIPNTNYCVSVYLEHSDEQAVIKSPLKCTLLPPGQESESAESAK
Method: SPR; human IFNAR2 ECD immobilized, VHH as analyte; binding constants from kinetic fits
Result Type: pKd
Answers are plain numbers, as −log10 of the molar value.

[
  {
    "Binder": "IFNAR2-VHH3 (VHH, Member of the group m12 (IFNAR2 VHHs); also called VHH3 (IFNAR2 VHH)) VHH: QVQLQESGGGLVQPGGSLRLSCAASEFTFSEYSMKWVRQPPGKGLEWVSTISPSGGTTRYAESVKGRFTISRDNAKNTLYLQLNSLKTEDTAMYYCSVADWSVTQRRGQGTQVTVSS",
    "Meas Value": 9.68
  }
]

Retrieve pKd measured for IFNAR2-VHH8 (VHH, Member of the group m12 (IFNAR2 VHHs); also called VHH8 (IFNAR2 VHH)) VHH: QVQLQESGGGSVQAGGSLRLSCAASGFYGTYSMGWFRQAPGKEREGVAHIESDGSTRYADSMKGRFTVSKDNAKKILYLQMNSLKPEDTAVYYCAADPRPYFRTWYERARYGGQGTQVTVSS and print it.
9.27
